For each record, write down the corresponding pIC50.
- Tested on: SYO-1 complex spheroid growth, percent test/control
- Assay notes: Anticancer human tumor SYO-1 cell line growth inhibition [Asc];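 note: compound exposure lasted 7 days after spheroids grew 3 days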
- Run conditions: curve of first compound; second compound 0.3 µM
- From the text: Multicellular complex tumor spheroid response to apoptosis pathway targeting inhibitors Alrizomadlin, Pelcitoclax, and Dasminapant in combination with a variety of drugs and investigational agents in selected tumor cell lines […] Compounds. […] If the clinical Cmax for an agent had not been determined, the highest concentration tested was 10 microM. […]
pIC50: −log10 of the molar value.

Exercise: Give reported pIC50 value for Cn1ncnc1[C@H]1c2n[nH]c(=O)c3cc(F)cc(c23)N[C@@H]1c1ccc(F)cc1 + CCN1C(C(=O)NC23CCC(C(=O)O)(CC2)CC3)C(c2cccc(Cl)c2F)C2(C(=O)Nc3cc(Cl)ccc32)C12CCCCC2
Solution: > 9.50

Exercise: For the molecule C=C(F)C(=O)N1CCN(c2nc(OCC3CCCN3C)nc3c2CCN(c2cccc4cccc(Cl)c24)C3)CC1CC#N (stereo not given) + CCN1C(C(=O)NC23CCC(C(=O)O)(CC2)CC3)C(c2cccc(Cl)c2F)C2(C(=O)Nc3cc(Cl)ccc32)C12CCCCC2 , give its reported pIC50.
Solution: > 7.50

Exercise: Tell us which pIC50 value is on record for CCN1CCN(Cc2ccc(Nc3ncc(F)c(-c4cc(F)c5nc(C)n(C(C)C)c5c4)n3)nc2)CC1 + CCN1C(C(=O)NC23CCC(C(=O)O)(CC2)CC3)C(c2cccc(Cl)c2F)C2(C(=O)Nc3cc(Cl)ccc32)C12CCCCC2
Solution: > 8.50

Exercise: State, in one line, measured pIC50 of CNC(C)C(=O)NC1CN(S(=O)(=O)c2cccc(S(=O)(=O)N3CCC4CCC(C(=O)NC(c5ccccc5)c5ccccc5)N4C(=O)C(NC(=O)C(C)NC)C3)c2)CCC2CCC(C(=O)NC(c3ccccc3)c3ccccc3)N2C1=O (stereo not given) + CCN1C(C(=O)NC23CCC(C(=O)O)(CC2)CC3)C(c2cccc(Cl)c2F)C2(C(=O)Nc3cc(Cl)ccc32)C12CCCCC2
Solution: > 8.50

Exercise: Note pIC50 for the molecule shown: C=CC(=O)N1CCN(c2nc(=O)n(-c3c(C)ccnc3C(C)C)c3nc(-c4c(O)cccc4F)c(F)cc23)C(C)C1 (stereo not given) + CCN1C(C(=O)NC23CCC(C(=O)O)(CC2)CC3)C(c2cccc(Cl)c2F)C2(C(=O)Nc3cc(Cl)ccc32)C12CCCCC2
Solution: > 7.50

Exercise: State its pIC50: O=C(c1ccc(F)c(F)c1Nc1ccc(I)cc1F)N1CC(O)([C@@H]2CCCCN2)C1 + CCN1C(C(=O)NC23CCC(C(=O)O)(CC2)CC3)C(c2cccc(Cl)c2F)C2(C(=O)Nc3cc(Cl)ccc32)C12CCCCC2
Solution: > 8.50

Exercise: Return pIC50 (reported value) for this molecule: NC1CCC(NC2CC2c2ccccc2)CC1 (stereo not given) + CCN1C(C(=O)NC23CCC(C(=O)O)(CC2)CC3)C(c2cccc(Cl)c2F)C2(C(=O)Nc3cc(Cl)ccc32)C12CCCCC2
Solution: > 9.50

Exercise: Fill in pIC50 for record Cc1nc(N2CCC3(CC2)COC(C)C3N)c(CO)nc1Sc1ccnc(N)c1Cl (stereo not given) + CCN1C(C(=O)NC23CCC(C(=O)O)(CC2)CC3)C(c2cccc(Cl)c2F)C2(C(=O)Nc3cc(Cl)ccc32)C12CCCCC2
Solution: > 8.02

Exercise: Please give measured pIC50 of the following entry: NC(=O)C(=Cn1cnc(-c2cc(C(F)(F)F)cc(C(F)(F)F)c2)n1)c1cncnc1 + CCN1C(C(=O)NC23CCC(C(=O)O)(CC2)CC3)C(c2cccc(Cl)c2F)C2(C(=O)Nc3cc(Cl)ccc32)C12CCCCC2
Solution: > 9.02

Exercise: Please look at this molecule and report its pIC50: COc1c(OCCCN2CCOCC2)ccc2c3n(c(=NC(=O)c4cnc(N)nc4)nc12)CCN3 + CCN1C(C(=O)NC23CCC(C(=O)O)(CC2)CC3)C(c2cccc(Cl)c2F)C2(C(=O)Nc3cc(Cl)ccc32)C12CCCCC2
Solution: > 8.50
